TEST SUMMARY: reduction of polyQ htt aggregates in cells – imaging, exon1htt(103Q)mCFP cells, high-content imaging, primary screen (AID 483);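 also: compound exposure lasted 3 days before fixation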
TEST PARAMETERS: exon1htt(103Q)mCFP cell line, aggregate imaging, at 2 µM; hits give high values
RECORDED METRIC: inhibition of aggregation (%)

COc1ccccc1OCCCn1cc(C(=O)c2ccco2)c2ccccc21	-12.2
Cc1ccc2nc(N3CCN(C)CC3)[nH]c2c1	5.5
CCNc1ccc(P(=S)(N(C)C)N(C)C)cc1	-8.4
O=C(C1CCCN(S(=O)(=O)c2cccc3nsnc23)C1)N1CCC2(CC1)OCCO2 (stereo not given)	10.6
CCC(=NCCCN1CCOCC1)c1c(O)n(Cc2ccccc2)c(=O)[nH]c1=O	8.2
CN(C)[C@@H]1C(=O)C(C(N)=O)=C(O)[C@@]2(O)C(=O)C3=C(O)c4c(O)cccc4[C@@](C)(O)[C@H]3[C@H](O)[C@@H]12	62.6
CCCCCCC(N)CC(=O)O (stereo not given)	-9.8
CCOC(=O)c1cccc([P+](=O)O)c1	1.9
CC[N+]1(C)CCCC(OC(=O)C(O)(c2ccccc2)c2ccccc2)C1 (stereo not given)	-2.7
Cc1cnn(C2CCN(C)CC2)c1N	-22.3
